Molecular target: Human CARM1 (PRMT4) (Homo sapiens, UniProt Q86X55)
Construct: Flag-CARM1-His was eluted with 200 ug/ml FLAG peptide in buffer A; made in house; host or cells: HEK 293F cells (BacMam baculovirus, pFastBacMam)
Sequence (Q86X55 1-585 isoform Q86X55-1): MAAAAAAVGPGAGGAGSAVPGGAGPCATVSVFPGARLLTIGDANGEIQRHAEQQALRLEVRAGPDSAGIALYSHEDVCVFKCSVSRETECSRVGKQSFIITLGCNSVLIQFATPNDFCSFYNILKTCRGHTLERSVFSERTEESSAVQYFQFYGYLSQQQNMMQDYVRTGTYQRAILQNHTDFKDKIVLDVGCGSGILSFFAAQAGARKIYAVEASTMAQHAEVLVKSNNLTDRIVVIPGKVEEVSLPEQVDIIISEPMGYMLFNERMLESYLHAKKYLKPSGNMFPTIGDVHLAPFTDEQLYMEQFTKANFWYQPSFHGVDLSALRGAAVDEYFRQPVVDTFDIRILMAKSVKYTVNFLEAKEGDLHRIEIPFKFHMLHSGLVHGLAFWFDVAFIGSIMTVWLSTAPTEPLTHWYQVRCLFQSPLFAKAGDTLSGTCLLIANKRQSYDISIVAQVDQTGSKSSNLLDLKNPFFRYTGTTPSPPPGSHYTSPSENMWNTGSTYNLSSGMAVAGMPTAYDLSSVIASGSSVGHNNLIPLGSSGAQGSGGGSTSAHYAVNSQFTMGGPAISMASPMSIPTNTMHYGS
Test: CARM1 Biochemical Assay (3H-SAM Flashplate, peptide substrate)
Settings: 30 min preincubation
Excerpt: Peptide representative of human histone H3 residues 16-30 was synthesized with an N-terminal linker-affinity tag motif and a C-terminal amide cap by 21st Century Biochemicals. The peptide was purified by high-performance liquid chromatography (HPLC) to greater than 95% purity and confirmed by liquid chromatography mass spectrometry (LC-MS). The sequence was Biot-Ahx-[…]-amide and contained a monomethylated arginine at position 26 (SEQ ID NO:14). […]
Parameter IC50: see the listing below.

{"columns": ["SMILES_ENTRY", "IC50"],
 "data": [
  ["CNCCN(C)Cc1c[nH]nc1C#Cc1ccc(C(C)(C)C)cc1", "101 to 1000 nM"],
  ["CN(CCN)Cc1c[nH]nc1/C=C/c1cc(C(F)(F)F)cc(C(F)(F)F)c1", "101 to 1000 nM"],
  ["CNCCN(C)Cc1c[nH]nc1C#Cc1cccc(OC)c1", "101 to 1000 nM"],
  ["Cc1ccc(/C=C/c2n[nH]cc2CN(C)CCN)cc1", "101 to 1000 nM"],
  ["CN(CCN)Cc1c[nH]nc1CCc1ccc(F)cc1", "1010 to 3000 nM"],
  ["COc1cccc(/C=C/c2n[nH]cc2CN(C)CCN)c1", "< 100 nM"],
  ["CNCCN(C)Cc1c[nH]nc1/C=C/c1ccc(OC)cc1", "< 100 nM"],
  ["CN(CCN)Cc1c[nH]nc1/C=C/c1cccc(F)c1", "101 to 1000 nM"],
  ["CNCCN(C)Cc1c[nH]nc1/C=C/c1ccc(-c2ccccc2)cc1", "101 to 1000 nM"],
  ["CN(CCN)Cc1c[nH]nc1C1CCCCC1", "3010 to 10000 nM"],
  ["CN(CCN)Cc1c[nH]nc1/C=C/c1ccc(F)cc1F", "101 to 1000 nM"],
  ["CNCCN(C)Cc1c[nH]nc1C#Cc1ccccc1", "1010 to 3000 nM"],
  ["CN(CCN)Cc1c[nH]nc1/C=C/c1ccc(C(F)(F)F)cc1", "< 100 nM"],
  ["COc1cc(/C=C/c2n[nH]cc2CN(C)CCN)cc(OC)c1", "< 100 nM"],
  ["CN(CCN)Cc1c[nH]nc1/C=C/c1cccc(C(F)(F)F)c1", "101 to 1000 nM"],
  ["CNCCN(C)Cc1c[nH]nc1/C=C/c1ccc(C(F)(F)F)cc1", "101 to 1000 nM"],
  ["CN(CCN)Cc1c[nH]nc1/C=C/c1cc(F)cc(F)c1", "101 to 1000 nM"],
  ["CNCCN(C)Cc1c[nH]nc1C#Cc1ccc(F)cc1", "101 to 1000 nM"],
  ["COC/C=C/c1n[nH]cc1CN(C)CCN", "3010 to 10000 nM"]
]}

###

pIC50: −log10 of the molar value.
Reported pIC50, human PRMT6 (Homo sapiens, UniProt Q96LA8).

{"columns": ["COMPOUND", "pIC50"],
 "data": [
  ["CN(CCN)Cc1c[nH]nc1C1CCC(N2CCOCC2)CC1 (stereo not drawn)", "> 7.00"],
  ["CN(CCN)Cc1c[nH]nc1C1=CCCC1", "6.00 to 7.00"],
  ["CN(CCN)Cc1n[nH]cc1C1CCC(N2CCOCC2)CC1 (stereo not drawn)", "6.00 to 7.00"],
  ["CN(CCN)Cc1c[nH]nc1/C=C/c1cccc(F)c1", "> 7.00"],
  ["Cc1n[nH]cc1CN(C)CCN", "6.00 to 7.00"],
  ["CN(CCN)Cc1c[nH]nc1/C=C/Cc1ccccc1", "6.00 to 7.00"],
  ["CN(CCN)Cc1c[nH]nc1CCc1ccc(F)cc1", "> 7.00"],
  ["CN(CCN)Cc1c[nH]nc1C(C)(C)C", "5.52 to 6.00"],
  ["CC(C)Cc1n[nH]cc1CN(C)CCN", "> 7.00"],
  ["COc1cc(/C=C/c2n[nH]cc2CN(C)CCN)cc(OC)c1", "> 7.00"],
  ["CN(CCN)Cc1n[nH]cc1C1CCC(C)(C)CC1", "> 7.00"],
  ["CC1CCC(c2n[nH]cc2CN(C)CCN)CC1 (stereo not drawn)", "> 7.00"],
  ["CNCCN(C)Cc1c[nH]nc1C#Cc1ccc(C(C)(C)C)cc1", "> 7.00"],
  ["CNCCN(C)Cc1c[nH]nc1C#Cc1ccccc1", "> 7.00"],
  ["CNCCN(C)Cc1c[nH]nc1C#Cc1cccc(OC)c1", "> 7.00"],
  ["CN(CCN)Cc1c[nH]nc1/C=C/c1cccc(C(F)(F)F)c1", "6.00 to 7.00"],
  ["CNCCN(C)Cc1c[nH]nc1/C=C/c1ccc(OC)cc1", "> 7.00"],
  ["CNCCN(C)Cc1c[nH]nc1C#Cc1ccc(F)cc1", "> 7.00"],
  ["CN(CCN)Cc1c[nH]nc1C1CC1", "5.52 to 6.00"],
  ["CN(CCN)Cc1c[nH]nc1C1CCCCC1", "> 7.00"],
  ["CNCCN(C)Cc1c[nH]nc1C1CCN(C(=O)CC(C)C)CC1", "> 7.00"],
  ["CN(CCN)Cc1c[nH]nc1C1CCCC1", "5.00 to 5.52"],
  ["CN(CCN)Cc1c[nH]nc1C1=CCOCC1", "6.00 to 7.00"],
  ["CN(CCN)Cc1c[nH]nc1/C=C/c1cc(F)cc(F)c1", "> 7.00"],
  ["CNCCN(C)Cc1c[nH]nc1C1CCN(C)CC1", "> 7.00"],
  ["CN(CCN)Cc1n[nH]cc1C1CCCCC1", "> 7.00"],
  ["CN(CCN)Cc1c[nH]nc1C1CCC1", "6.00 to 7.00"],
  ["CN(CCN)Cc1c[nH]nc1/C=C/c1cc(C(F)(F)F)cc(C(F)(F)F)c1", "6.00 to 7.00"],
  ["CN(CCN)Cc1c[nH]nc1C1CCC(C)(C)CC1", "> 7.00"],
  ["CCCc1n[nH]cc1CN(C)CCN", "6.00 to 7.00"],
  ["COC/C=C/c1n[nH]cc1CN(C)CCN", "6.00 to 7.00"],
  ["CN(CCN)Cc1c[nH]nc1/C=C/c1ccc(C(F)(F)F)cc1", "> 7.00"],
  ["CNCCN(C)Cc1c[nH]nc1/C=C/c1ccc(C(F)(F)F)cc1", "> 7.00"]
]}

Reference source for all entries: patent US11185531B2
